Data credit: patent US12583866B2

# measurement.target: recombinant human XIAP-BIR3 protein (Homo sapiens, UniProt P98170)
# Construct: recombinant human XIAP-BIR3 protein; purchased Reaction biology APT-11-374
# Sequence (P98170 241-356 limits assumed): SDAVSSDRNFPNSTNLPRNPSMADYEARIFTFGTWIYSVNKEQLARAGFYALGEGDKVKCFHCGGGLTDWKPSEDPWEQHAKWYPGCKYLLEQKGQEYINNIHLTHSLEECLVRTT
# assay.details: Recombinant human XIAP-BIR3 biochemical assay (HTRF, peptide displacement)
# settings: 3.7 nM XIAP-BIR3, 7.6 nM AbuRPF-K(5-Fam)-NH2 peptide, read-out: Protein binding IC50 (nM) XIAP
observable: IC50 (nM)

compound	uom	IC50
C[C@@H]1CN(CC(=O)N2c3cc(Cc4ccc(F)cc4)c(C(N)=O)nc3OC[C@@H]2C)[C@@H](CN2CCOC[C@H]2C(F)F)CN1 [Example 82]	nM	10
C[C@@H]1CN(CC(=O)N2c3cc(Cc4ccc(F)cc4)c(-c4ccc(F)cc4)nc3OC[C@@H]2C)[C@@H](CN2[C@H](C)COC[C@H]2C)CN1 [Compound 113]	nM	5.4

[I] C[C@@H]1CN(CC(=O)N2c3cc(Cc4ccc(F)cc4)c(CO)nc3OC[C@@H]2C)[C@@H](CN2[C@H](C)COC[C@H]2C)CN1 [Compound 24]
[II] CCOC[C@H]1COc2ncc(Cc3ccc(F)cc3)cc2N1C(=O)CN1C[C@@H](C)NC[C@@H]1CN1[C@H](C)COC[C@H]1C [Compound 36]
[III] C[C@@H]1CN(CC(=O)N2CCOc3ncc(Cc4ccc(F)cc4)cc32)[C@@H](CN2[C@H](C)COC[C@H]2C)CN1 [Compound 16]
stdin: Rank by IC50 (largest to smallest). Returns: the labels listed in the requested order.
stdout: II, III, I
(II: 50 nM, III: 8.4 nM, I: 4.49 nM)

[A] CC(C)OC[C@@H]1COCCN1C[C@H]1CN[C@H](C)CN1CC(=O)N1c2cc(Cc3ccc(F)cc3)c(C(N)=O)nc2OC[C@@H]1C [Example 62]
[B] CCOc1nc2c(cc1Cc1ccc(F)cc1)N(C(=O)CN1C[C@@H](C)NC[C@@H]1CN1[C@H](C)COC[C@H]1C)[C@@H](C)CO2 [Compound 87]
stdin: When their IC50 values are compared, which is larger, A or B ? Give the label under which the chosen entry appears.
stdout: A

[1] C[C@@H]1CN(CC(=O)N2c3cc(Cc4ccc(F)cc4)c(C(=O)N4CCOCC4)nc3OC[C@@H]2C)[C@@H](CN2[C@H](C)COC[C@H]2C)CN1 [Example 72]
[2] C[C@@H]1CN(CC(=O)N2c3cc(Cc4ccc(F)cc4)cnc3OC[C@@H]2C2CCCCC2)[C@@H](CN2[C@H](C)COC[C@H]2C)CN1 [Compound 43]
stdin: Kindly compare 1 with 2 and tell me which has the lower IC50 figure. Give the label under which the chosen entry appears.
stdout: 1
(1: 7.6 nM, 2: 23 nM)

[A] C[C@@H]1CN(CC(=O)N2c3cc(Cc4ccc(F)cc4F)c(CO)nc3OC[C@@H]2C)[C@@H](CN2[C@H](C)COC[C@H]2C)CN1 [Example 60]
[B] C[C@@H]1CN(CC(=O)N2c3cc(Cc4ccc(F)cc4)cnc3OC[C@@H]2Cc2ccccc2)[C@@H](CN2CCOC[C@H]2C)CN1 [Compound 29]
stdin: Kindly compare A with B and tell me which has the lower IC50 figure. Give the label under which the chosen entry appears.
stdout: A
(A: 7.5 nM, B: 22 nM)
